- testMethodNotes: Metabolic stability of the compound in mouse serum assessed as compound residual ratio at 0.1 mM after 1 hr
- Assay type: ADME, cell-free
- details: read-out: Stability
# remaining at 1 h, 100 µM per entry
Kindly provide the numeric value in % only, without the unit symbol.

# annotated cases, reported remaining at 1 h, 100 µM shown
[[record]]
chemicalstructure = "CNC(N)=NCCC[C@H](NC(=O)[C@H](CC(C)C)NC(=O)CNC[C@H](Cc1ccccc1)NC(=O)[C@H](CO)NC(=O)[C@H](CC(N)=O)NC(=O)[C@H](Cc1c[nH]c2ccccc12)NC(=O)[C@H](CC(N)=O)NC(=O)[C@H](N)Cc1ccc(O)cc1)C(=O)N[C@@H](Cc1ccccc1)C(N)=O"
unitname = "%"
readoutnumber = 12.1

[[record]]
chemicalstructure = "CNC(N)=NCCC[C@H](NC(=O)[C@H](CC(C)C)NC(=O)CC(=O)N[C@H](Cc1ccccc1)NC(=O)[C@H](CO)NC(=O)[C@H](CC(N)=O)NC(=O)[C@H](Cc1c[nH]c2ccccc12)NC(=O)[C@H](CC(N)=O)NC(=O)[C@H](N)Cc1ccc(O)cc1)C(=O)N[C@@H](Cc1ccccc1)C(N)=O"
unitname = "%"
readoutnumber = 46.8

[[record]]
chemicalstructure = "CNC(N)=NCCC[C@H](NC(=O)[C@H](CC(C)C)NC(=O)CNC(=O)[C@H](Cc1ccccc1)NC(=O)[C@H](CO)NC(=O)[C@H](CC(N)=O)NC(=O)[C@H](Cc1c[nH]c2ccccc12)NC(=O)[C@H](CC(N)=O)NC(=O)[C@H](N)Cc1ccc(O)cc1)C(=O)N[C@@H](Cc1ccccc1)C(N)=O"
unitname = "%"
readoutnumber = 18.1


Now turn to the next compound.
Ask: Sample `CNC(=N)NCCC[C@H](NC(=O)[C@H](CC(C)C)NC(=O)NNC(=O)[C@H](Cc1ccccc1)NC(=O)[C@H](CO)NC(=O)[C@H](CC(N)=O)NC(=O)[C@H](Cc1c[nH]c2ccccc12)NC(=O)[C@H](CC(N)=O)NC(=O)[C@H](N)Cc1ccc(O)cc1)C(=O)N[C@@H](Cc1ccccc1)C(N)=O` — what was its remaining at 1 h, 100 µM?
Result: 39.5

----------
- testMethodNotes: Half life in human serum
- Format: ADME, cell-free
resultType: half-life (h)
Give your result in h as a bare value.

Ask: Given the entry `CNC(N)=NCCC[C@H](NC(=O)[C@H](CC(C)C)NC(=O)CNC(=O)[C@H](Cc1ccccc1)NC(=O)[C@H](CO)NC(=O)[C@H](CC(N)=O)NC(=O)[C@H](Cc1c[nH]c2ccccc12)NC(=O)[C@H](CC(N)=O)NC(=O)[C@H](N)Cc1ccc(O)cc1)C(=O)N[C@@H](Cc1ccccc1)C(N)=O` , report its measured half-life.
Result: 1.25

----------
- assaySystem: UniProt Q924U1
- Sequence (Q924U1 whole entry): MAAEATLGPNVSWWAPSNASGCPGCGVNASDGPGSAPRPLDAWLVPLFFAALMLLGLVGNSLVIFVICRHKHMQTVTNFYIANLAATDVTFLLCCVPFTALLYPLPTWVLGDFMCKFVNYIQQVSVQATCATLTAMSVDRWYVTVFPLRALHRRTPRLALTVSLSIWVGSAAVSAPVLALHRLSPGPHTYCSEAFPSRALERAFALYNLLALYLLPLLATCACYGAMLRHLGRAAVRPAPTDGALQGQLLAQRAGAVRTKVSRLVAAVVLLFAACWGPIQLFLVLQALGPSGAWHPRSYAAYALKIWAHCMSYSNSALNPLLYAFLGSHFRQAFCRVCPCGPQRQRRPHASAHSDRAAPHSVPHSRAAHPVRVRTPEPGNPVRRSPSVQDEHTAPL
Starred links: 1 amine or outer side, 2 acyl side, 3 side chain; linkers in the order of their positions; H or OH if unused. Non-standard residues stand in square brackets, D forms with d. Residues, ends and D or L forms follow the SMILES beside them. X1 = O=C(CNC(=S)[C@H](Cc1ccccc1)N[*:1])[*:2]; Arg(Me) = CNC(=N)NCCC[C@H](N)C(=O)O; azaGly = NNC(=O)O
This section presents compounds with their documented IC50 values.
Numeric only. Scale: nM

Solved entries:
[[record]]
compound = "CNC(N)=NCCC[C@H](NC(=O)[C@H](CC(C)C)NC(=O)CNC(=S)[C@H](Cc1ccccc1)NC(=O)[C@H](CO)NC(=O)[C@H](CC(N)=O)NC(=O)[C@H](Cc1c[nH]c2ccccc12)NC(=O)[C@H](CC(N)=O)NC(=O)[C@H](N)Cc1ccc(O)cc1)C(=O)N[C@@H](Cc1ccccc1)C(N)=O (H-[dY]NWNS[X1]L[Arg(Me)]F-NH2)"
resulttype = "IC50"
unitname = "nM"
readoutnumber = 3.3

[[record]]
compound = "CNC(N)=NCCC[C@H](NC(=O)[C@H](CC(C)C)NC(=O)NNC(=O)[C@H](Cc1ccccc1)NC(=O)[C@H](CO)NC(=O)[C@H](CC(N)=O)NC(=O)[C@@H](NC(=O)[C@H](CC(N)=O)NC(=O)[C@H](N)Cc1ccc(O)cc1)[C@@H](C)O)C(=O)N[C@@H](Cc1ccccc1)C(N)=O (H-[dY]NTNSF[azaGly]L[Arg(Me)]F-NH2)"
resulttype = "IC50"
unitname = "nM"
readoutnumber = 0.83


# evaluate next
Ask: What value of IC50 has been reported for the following compound? `CNC(N)=NCCC[C@H](NC(=O)[C@H](CC(C)C)NC(=O)CC(=O)N[C@H](Cc1ccccc1)NC(=O)[C@H](CO)NC(=O)[C@H](CC(N)=O)NC(=O)[C@H](Cc1c[nH]c2ccccc12)NC(=O)[C@H](CC(N)=O)NC(=O)[C@H](N)Cc1ccc(O)cc1)C(=O)N[C@@H](Cc1ccccc1)C(N)=O`
Result: 2.9
